# Test system: Hepatitis C virus
# experiment summary: Antiviral activity against Hepatitis C virus genotype 2A by whole cell replicon assay
# Format: functional, organism-based, Hepacivirus hominis

smiles record | EC50 (nM)
COC(=O)N[C@H](C(=O)N1CCC[C@H]1c1ncc(-c2ccc(-c3ccc(-c4cnc([C@@H]5CCCN5C(=O)[C@@H](NC(=O)OC)C(C)C)[nH]4)cc3)cc2)[nH]1)C(C)C | 0.063
COC(=O)N[C@H](/C(F)=C1\CCC[C@H]1c1ncc(-c2ccc(-c3ccc(-c4cnc([C@@H]5CCC/C5=C(/F)[C@@H](NC(=O)OC)C(C)C)[nH]4)cc3)cc2)[nH]1)C(C)C | 167
COC(=O)N[C@H](/C(F)=C(\C)[C@@H](C)c1ncc(-c2ccc(-c3ccc(-c4cnc([C@H](C)/C(C)=C(\F)[C@@H](NC(=O)OC)C(C)C)[nH]4)cc3)cc2)[nH]1)C(C)C | 397
